Hello, the source for this data is patent US20250026849A1, in case you need it.

Target: T1, CD123 (Homo sapiens (Human), UniProt P26951 19-305, limits assumed)
T1 construct: also called CD123-Signal
T1 sequence: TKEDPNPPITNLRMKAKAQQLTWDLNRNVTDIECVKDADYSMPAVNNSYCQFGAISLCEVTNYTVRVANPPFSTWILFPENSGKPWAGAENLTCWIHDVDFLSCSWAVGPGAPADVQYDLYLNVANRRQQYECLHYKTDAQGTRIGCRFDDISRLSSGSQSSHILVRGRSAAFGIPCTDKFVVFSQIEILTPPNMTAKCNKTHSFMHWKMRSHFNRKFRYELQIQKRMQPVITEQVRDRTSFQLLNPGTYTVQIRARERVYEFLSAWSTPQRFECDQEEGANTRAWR
Test: ELISA, format not described
Design: unit not given here
Provide the recorded ELISA_avg for the entries that follow.
One number for each entry.

Study these solved cases before continuing.
D domain SEQ ID NO: 678 (designed binder) MGSWFEFEERLNAISWRLHALGGSEAELAYFEEDIAWFEDDLQFYKGKGNPEVEALENEAYAIWEELDAYRHN ... 13
D domain SEQ ID NO: 685 (designed binder) MGSWVEFYNRLDAIENRLWALGGSEAELAFFEELIAQFEFALQDYKGKGNPEVEALEDEADAIWEELMAYRHN ... 6.9
D domain SEQ ID NO: 695 (designed binder) MGSWFEFLYRLDAIEDRLWALGGSEAELAEFEQEIAKFESELQSYKGKGNPEVEALEWEAHAIDMELEAYRHN ... 6.6
D domain SEQ ID NO: 673 (designed binder) MGSWAEFEDRLAAIERRLEALGGSEAELADFESSIAWFEPDLQYYKGKGNPEVEALMYEAEAIFSELYAYRHN ... 4.2
D domain SEQ ID NO: 737 (designed binder) MGSWKEFDNRLYAIEDRLRALGGSEAELAAFEKEIAAFESELQAYKGKGNPEVEHLRWYAADIRMILQAYRHN ... 3.9

Return reported ELISA_avg values for all items listed beneath this line.
1. D domain SEQ ID NO: 722 (designed binder) MGSWFEFLDRLDAIEERLWALGGSEAELAAFEKEIAAFESELQAYKGKGNPEVEWLREEAAVIRDSLQAYRHN
2. D domain SEQ ID NO: 772 (designed binder) MGSWYEFYQRLEAIEDRLFALGGSEAELAAFEKEIAAFESELQAYKGKGNPEVEWLRDEAAEIRVVLQAYRHN
3. D domain SEQ ID NO: 747 (designed binder) MGSWVEFESRLAAIEHRLWALGGSEAELAAFEKEIAAFESELQAYKGKGNPEVEELREYAAEIRDWLQAYRHN
4. D domain SEQ ID NO: 770 (designed binder) MGSWWEFEMRLEAIEDRLFALGGSEAELAAFEKEIAAFESELQAYKGKGNPEVESLRWEAAFIRDILQAYRHN

Result:
1. 12.2
2. 3
3. 3.7
4. 4

Ask: Name the recorded ELISA_avg for D domain SEQ ID NO: 669 (designed binder) MGSWFEFQWRLEAIEDRLWALGGSEAELAEFETIIAGFEEQLQVYKGKGNPEVEALEEEAMAIQTELHAYRHN .
Result: 3.4
